This collection of values is drawn from patent US20250320312A1.

target: BSA (UniProt P02769); test: scFv ELISA
Sequence (P02769 25-607 limits assumed): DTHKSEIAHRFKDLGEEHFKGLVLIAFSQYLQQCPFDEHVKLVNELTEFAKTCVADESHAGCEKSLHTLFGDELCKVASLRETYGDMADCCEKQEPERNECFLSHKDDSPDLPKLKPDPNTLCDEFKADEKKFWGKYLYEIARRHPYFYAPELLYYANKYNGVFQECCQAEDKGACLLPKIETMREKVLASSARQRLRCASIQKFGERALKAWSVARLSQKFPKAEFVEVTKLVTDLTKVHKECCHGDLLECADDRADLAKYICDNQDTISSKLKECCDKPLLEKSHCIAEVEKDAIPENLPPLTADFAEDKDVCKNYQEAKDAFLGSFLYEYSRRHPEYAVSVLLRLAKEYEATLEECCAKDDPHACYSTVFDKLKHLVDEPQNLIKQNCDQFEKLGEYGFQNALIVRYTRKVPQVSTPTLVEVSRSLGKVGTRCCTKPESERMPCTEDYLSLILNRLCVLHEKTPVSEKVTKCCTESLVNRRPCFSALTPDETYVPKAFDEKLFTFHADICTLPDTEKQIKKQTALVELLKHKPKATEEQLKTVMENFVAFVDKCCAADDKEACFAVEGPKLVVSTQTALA

{"columns": ["binder", "unit_annotation", "OD450"],
 "data": [
  ["PcOxP_DB01_E08 (scFv, V domains shown, scFv in periplasmic extract) VH: EVQLLESGGGLVQPGGSLRLSCAASGDTFSDFYMEWVRQAPGKGLEWVAASRNKANAYTTEYADSVKGRFTISRDNSKNTLYLQMNSLRAEDTAVYYCARDYYGQSYWYFDVWGQGTLVTVSS VL: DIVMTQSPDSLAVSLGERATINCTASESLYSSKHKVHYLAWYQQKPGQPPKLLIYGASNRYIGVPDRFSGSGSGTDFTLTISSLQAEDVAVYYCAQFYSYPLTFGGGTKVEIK", "OD450", 0.06],
  ["PcOxP_DB04_G01 (scFv, V domains shown, scFv in periplasmic extract) VH: EVQLLESGGGLVQPGGSLRLSCAASGFTFSDYYMEWVRQAPGKGLEWVAASRNKWNDYTTEYADSVKGRFTISRDNSKNTLYLQMNSLRAEDTAVYYCARDYYLSSYWYFDVWGQGTLVTVSS VL: DIVMTQSPDSLAVSLGERATINCKASQSVLSSKNNVNYLAWYQQKPGQPPKLLIYGASNRYIGVPDRFSGSGSGTDFTLTISSLQAEDVAVYYCAQFYQYPLTFGGGTKVEIK", "OD450", 0.09],
  ["PcOxP_DB03_A09 (scFv, V domains shown, scFv in periplasmic extract) VH: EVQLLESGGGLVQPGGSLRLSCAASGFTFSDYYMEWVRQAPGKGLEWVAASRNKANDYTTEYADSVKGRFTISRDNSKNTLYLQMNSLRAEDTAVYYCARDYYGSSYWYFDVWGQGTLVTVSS VL: DIQMTQSPSSLSASVGDRVTITCTASESLYSSKHKVHYLAWYQQKPGKAPKLLIYGASNRGIGVPSRFSGSGSGTDFTLTISSLQPEDFATYYCAQFYSYPLTFGGGTKVEIK", "OD450", 0.09]
]}
